Measured Primary assay EC50 (cAMP), n1 by item
biological target: glucagon receptor (GCGR), primary cAMP assay (human, UniProt P47871 26-477); assay: cell-based or functional assay
Sequence (P47871 26-477): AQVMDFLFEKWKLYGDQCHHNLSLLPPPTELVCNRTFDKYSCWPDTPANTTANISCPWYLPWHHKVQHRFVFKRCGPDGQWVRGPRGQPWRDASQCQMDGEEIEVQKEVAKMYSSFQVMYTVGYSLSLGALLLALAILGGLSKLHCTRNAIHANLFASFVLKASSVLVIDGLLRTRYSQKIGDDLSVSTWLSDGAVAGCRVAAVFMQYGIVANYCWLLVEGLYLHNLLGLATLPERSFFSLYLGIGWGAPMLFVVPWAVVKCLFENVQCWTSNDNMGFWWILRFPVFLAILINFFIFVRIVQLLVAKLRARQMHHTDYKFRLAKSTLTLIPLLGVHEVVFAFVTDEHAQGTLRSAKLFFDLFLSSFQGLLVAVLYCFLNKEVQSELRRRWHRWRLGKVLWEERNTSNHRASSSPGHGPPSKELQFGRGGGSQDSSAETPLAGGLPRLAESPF
Starred links: 1 amine or outer side, 2 acyl side, 3 side chain; linkers in the order of their positions; H or OH if unused. Non-standard residues stand in square brackets, D forms with d. Groups on a side chain read outwards from the residue. Primed or numbered codes have the meaning given here. No end group written: not given here. *: point of attachment. γGlu = O=C(O)[C@H](CCC(=O)[*:2])N[*:1]; Palmitoyl = CCCCCCCCCCCCCCCC(=O)*; αMeF = C[C@](N)(Cc1ccccc1)C(=O)O; αMeK = C[C@](N)(CCCCN)C(=O)O; Lauroyl = CCCCCCCCCCCC(=O)*; αMeS = C[C@](N)(CO)C(=O)O; PEG2′ = not defined here; Aib = CC(C)(N)C(=O)O
METRIC_NAME: Primary assay EC50 (cAMP), n1 (nM)

BINDER	VALUE_REPORTED
H[Aib]EGTFTSDVSK([PEG2′-PEG2′-γGlu-Palmitoyl])YLEGEAAEEFIK([PEG2′-PEG2′-γGlu-Palmitoyl])WVVEGG-NH2 [SEQ ID NO: 242]	21.4
H[Aib]EGS[αMeF]TSDV[αMeS]SK([PEG2′-PEG2′-γGlu-Palmitoyl])LEGEAA[αMeK]EFIAWK([PEG2′-PEG2′-γGlu-Palmitoyl])VEGG-NH2 [SEQ ID NO: 267]	21.7
H[Aib]EGS[αMeF]TSDK([PEG2′-PEG2′-γGlu-Lauroyl])SSYLEGEAA[αMeK]EFIAK([PEG2′-PEG2′-γGlu-Lauroyl])VVEGG-NH2 [SEQ ID NO: 257]	22.8
H[Aib]EGS[αMeF]TSDVSK([PEG2′-PEG2′-γGlu-Lauroyl])FLEGEAAEEFIK([PEG2′-PEG2′-γGlu-Lauroyl])FVVEGG-NH2 [SEQ ID NO: 241]	22.5
H[Aib]EGTFTSDVSK([PEG2′-PEG2′-γGlu-Lauroyl])FLEGEAAEEFIK([PEG2′-PEG2′-γGlu-Lauroyl])FVVEGG-NH2 [SEQ ID NO: 239]	22.5
